experiment: NCI Yeast Anticancer Drug Screen. Data for the bub3 strain (AID 167); details: S. cerevisiae bub3 mutant strain, at 100.0 µM, active compounds read high
This is part of a sample that, as a whole, favours compounds with a hit. Of some 79,000 tested, about 15% had one in any assay.
# growth inhibition per entry
Field: numeric (%). Do not append units.

Take a look at these entries with their results.
Request: Which growth inhibition value is on record for [N-]=[N+]=NC1CC(n2ccc(=O)[nH]c2=O)OC1COC(c1ccccc1)(c1ccccc1)c1ccccc1 (stereo not given) ?
Response: 83

Request: Look up growth inhibition for this compound: Cc1cccc(N2CCN(C(=O)/C(=C/c3ccccc3)NC(=O)c3ccccc3)CC2)c1
Response: 38

Request: For O=c1c(Br)cc2c(-c3ccccc3)c3cc(Br)c(O)c(Br)c3oc-2c1Br , what is its reported growth inhibition?
Response: 79

Request: Which growth inhibition reading was recorded for the compound O=[N+]([O-])c1cccc2nc3ccccc3c(NCCC[N+]3([O-])CCOCC3)c12 ?
Response: 84

Continuing:
Request: What measured growth inhibition goes with Cc1cnccc1N=Nc1ccc(N(C)C)cc1 ?
Response: 79

The reported measurements were obtained from PubChem BioAssay (NCI).
